Each entry below lists one item and its recorded Relative binding (%) with Mutant Ang2 compared to the binding with native Ang2 value.
Target: T1, Ang2 with N467 mutated with alanine, tagged with FLAG (human, UniProt O15123 19-496, limits assumed)
T1 sequence: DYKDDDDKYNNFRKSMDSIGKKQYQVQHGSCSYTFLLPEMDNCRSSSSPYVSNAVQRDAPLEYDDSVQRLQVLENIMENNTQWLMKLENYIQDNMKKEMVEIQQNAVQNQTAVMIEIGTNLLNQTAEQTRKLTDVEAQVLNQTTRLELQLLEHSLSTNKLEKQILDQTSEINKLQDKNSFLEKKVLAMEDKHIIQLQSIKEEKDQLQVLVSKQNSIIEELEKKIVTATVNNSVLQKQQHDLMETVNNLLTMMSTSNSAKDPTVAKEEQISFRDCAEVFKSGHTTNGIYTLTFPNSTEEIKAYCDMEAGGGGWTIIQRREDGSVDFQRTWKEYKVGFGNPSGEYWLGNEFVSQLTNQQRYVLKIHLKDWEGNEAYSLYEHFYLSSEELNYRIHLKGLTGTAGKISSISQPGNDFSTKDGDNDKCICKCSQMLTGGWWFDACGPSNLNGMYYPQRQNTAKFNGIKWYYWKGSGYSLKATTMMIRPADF
Test: ELISA, scFv coated, 250 ng FLAG-tagged Ang2 mutant, anti-FLAG-HRP
Method: A 96-well MaxiSorp™ flat-bottom plate (Nunc) was coated with 50 μl of the anti-Ang2 scFv selected above. […] Finally, 100 μl of TMB substrate (cell signal) was added to each well of the plate to induce color development and then, the reaction was ceased by the addition of 50 μl of 5N H₂SO₄ solution and OD450 values were measured on a plate reader (Molecular Devices).
Numeric only. Scale: %

Use these answered entries as a reference point.
BINDER: SAIT-ANG-2-AB-7-C9 (scFv form) (scFv, V domains shown, scFv from a phage display library) VH: EVQLLESGGGLVQPGGSLRLSCAASGFTFSNYAMSWVRQAPGKGLEWVSAISSGGGNIYYADSVKGRFTISRDNSKNTLYLQMNSLRAEDTAVYYCAKSGIQPSPPSMSSAYAMDVWGQGTLVTVSS VL: QSVLTQPPSASGTPGQRVTISCSGSSSNIGNNDVYWYQQLPGTAPKLLIYANSHRPSGVPDRFSGSKSGTSASLAISGLRSEDEADYYCGTWDYSLSGYVFGGGTKLTVLG
RECORDED NUMBER: 86.6
//
BINDER: SAIT-ANG-2-AB-4-F5 (scFv form) (scFv, V domains shown, scFv from a phage display library) VH: EVQLLESGGGLVQPGGSLRLSCAASGFTFSDYDMSWVRQAPGKGLEWVSSISHGDSNKYYADSVKGRFTISRDNSKNTLYLQMNSLRAEDTAVYYCAKSSGIQESPPTYYYYGMDVWGQGTLVTVSS VL: QSVLTQPPSASGTPGQRVTISCSGSSSNIGSNAVNWYQQLPGTAPKLLIYADSNRPSGVPDRFSGSKSGTSASLAISGLRSEDEADYYCGSWDYSLSGYVFGGGTKLTVLG
RECORDED NUMBER: 11.3

Recorded result, SAIT-ANG-2-AB-4-F11 (scFv form) (scFv, V domains shown, scFv from a phage display library) VH: EVQLLESGGGLVQTGGSLRLSCAASGFTFSDYAMSWVRQAPGKGLEWVSSIYPDDGNTYYADSVKGRFTISRDNSKNTLYLQMNSLRAEDTAVYYCAKHPVRLNLHPMYYYYGMDVWGQGTLVTVSS VL: QSVLTQPPSASGTPGQRVTISCTGSSSNIGNNAVSWYQQLPGTAPKLLIYSDSQRPSGVPDRFSGSKSGTSASLAISGLRSEDEADYYCATWDYSLSAYVFGGGTKLTVLG , Relative binding (%) with Mutant Ang2 compared to the binding with native Ang2: 92

Recorded result, SAIT-ANG-2-AB-3-D3 (scFv form) (scFv, V domains shown, scFv from a phage display library) VH: EVQLLESGGGLVQPGGSLRLSCAASGFTFSDYDMSWVRQAPGKGLEWVSGISSDDGNTYYADSVKGRFTISRDNSKNTLYLQMNSLRAEDTAVYYCARPTIDKYTLRGYYSYGMDVWGQGTLVTVSS VL: QSVLTQPPSASGTPGQRVTISCTGSSSNIGSNYVSWYQQLPGTAPKLLIYSDNKRPSGVPDRFSGSKSGTSASLAISGLRSEDEADYYCGTWDDSLNGYVFGGGTKLTVLG , Relative binding (%) with Mutant Ang2 compared to the binding with native Ang2: 90.9

Recorded result, SAIT-ANG-2-AB-4-C11 (scFv form) (scFv, V domains shown, scFv from a phage display library) VH: EVQLLESGGGLVQPGGSLRLSCAASGFTFSDYAMSWVRQAPGKGLEWVSSIYPDDGNTYYADSVKGRFTISRDNSKNTLYLQMNSLRAEDTAVYYCARHTSHHTSIDGYYYYGMDGWGQGTLVTVSS VL: QSVLTQPPSASGTPGQRVTISCTGSSSNIGNNDVSWYQQLPGTAPKLLIYSDSKRPSGVPDRFSGSKSGTSASLAISGLRSEDEADYYCGSWDYSLSGYVFGGGTKLTVLG , Relative binding (%) with Mutant Ang2 compared to the binding with native Ang2: 81.7

Recorded result, SAIT-ANG-2-AB-2-E6 (scFv form) (scFv, V domains shown, scFv from a phage display library, partly purified from E. coli periplasm on Ni-NTA and detected with anti-HA) VH: EVQLLESGGGLVQTGGSLRLSCAASGFTFSDYAMSWVRQAPGKGLEWVSAIYPDSGNKYYADSVKGRFTISRDNSKNTLYLQMNSLRAEDTAVYYCARHSSDPKVKSGYYDDGMDVWGQGTLVAVSS VL: QSVLTQPPSASGTPGQRVTISCSGSSSNIGNNAVNWYQQLPGTAPKLLIYADSNRPSGVPDRFSGSKSGTSASLAISGLRSEDEADYYCGSWDYSLSGYVFGGGTKLTVLG , Relative binding (%) with Mutant Ang2 compared to the binding with native Ang2: 72.1
